target entity: Human Androgen Receptor (Homo sapiens, UniProt P10275)
protocol description: Androgen receptor binding assay ([3H]R1881, HAP) in cytosol of HEK-293 cells transfected with hAR
reported conditions: Table 3; relative to R1881 = 100, transfected cells
The label Yes is reserved for Human Androgen Receptor Binding (%) RBA R1881 = 100 strictly under 60%; No covers values equal to or above it.

>  <compound>
Cc1c(N2C(=O)C(C)(C)N(CCCOc3ccc(-n4ccnc4)cc3)C2=S)ccc(C#N)c1Cl

>  <class label>
No

$$$$
>  <compound>
CCS(=O)(=O)c1ccc(OCCCN2C(=S)N(c3ccc(C#N)c(Cl)c3C)C(=O)C2(C)C)cc1

>  <class label>
Yes

$$$$
>  <compound>
Cc1c(N2C(=O)C(C)(C)N(CCCOc3ccc(S(C)(=O)=O)cc3)C2=S)ccc(C#N)c1Cl

>  <class label>
Yes

$$$$
>  <compound>
CC(=O)Nc1ccc(OCCCN2C(=S)N(c3ccc(C#N)c(Cl)c3C)C(=O)C2(C)C)cc1

>  <class label>
No

$$$$
>  <compound>
Cc1cc(CN2CCOCC2)ccc1OCCCN1C(=S)N(c2ccc(C#N)c(Cl)c2C)C(=O)C1(C)C

>  <class label>
No

$$$$
>  <compound>
Cc1c(N2C(=O)C(C)(C)N(CCCOc3ccc(S(=O)(=O)C(C)C)cc3)C2=S)ccc(C#N)c1Cl

>  <class label>
Yes

$$$$
>  <compound>
CCC(c1ccc(OCCCN2C(=S)N(c3ccc(C#N)c(Cl)c3C)C(=O)C2(C)C)cc1)N(C)C (stereo not drawn)

>  <class label>
No

$$$$
>  <compound>
Cc1c(N2C(=O)C(C)(C)N(CCCOc3ccc(CNC(C)C)cc3)C2=S)ccc(C#N)c1Cl

>  <class label>
Yes

$$$$

###

System: rat prostate, seminal vesicle, levator ani muscle
protocol description: Systemic androgenic activity in orchidectomized immature male rats
Format: in vivo
reported conditions: po, 168 h, Table 3, p.o (marked in prostate cell), 0.2 mg/animal daily 7 days, read-out: % Stimulation SV
List of change in vivo at 0.2 mg values.

>  <compound>
CCC(c1ccc(OCCCN2C(=S)N(c3ccc(C#N)c(Cl)c3C)C(=O)C2(C)C)cc1)N(C)C (stereo not drawn) [EM-8345]

>  <change in vivo at 0.2 mg, %>
18

$$$$
>  <compound>
Cc1c(N2C(=O)C(C)(C)N(CCCOc3ccc(-n4ccnc4)cc3)C2=S)ccc(C#N)c1Cl [EM-8346]

>  <change in vivo at 0.2 mg, %>
40

$$$$
>  <compound>
CCS(=O)(=O)c1ccc(OCCCN2C(=S)N(c3ccc(C#N)c(Cl)c3C)C(=O)C2(C)C)cc1 [EM-8261]

>  <change in vivo at 0.2 mg, %>
26

$$$$
>  <compound>
Cc1c(N2C(=O)C(C)(C)N(CCCOc3ccc(S(C)(=O)=O)cc3)C2=S)ccc(C#N)c1Cl [EM-8260]

>  <change in vivo at 0.2 mg, %>
28

$$$$
>  <compound>
Cc1c(N2C(=O)C(C)(C)N(CCCOc3ccc(S(=O)(=O)C(C)C)cc3)C2=S)ccc(C#N)c1Cl [EM-8363]

>  <change in vivo at 0.2 mg, %>
24

$$$$
>  <compound>
CC(=O)Nc1ccc(OCCCN2C(=S)N(c3ccc(C#N)c(Cl)c3C)C(=O)C2(C)C)cc1 [EM-8362]

>  <change in vivo at 0.2 mg, %>
43

$$$$

###

target entity: Human Androgen Receptor (Homo sapiens)
Sequence (P10275 1-920): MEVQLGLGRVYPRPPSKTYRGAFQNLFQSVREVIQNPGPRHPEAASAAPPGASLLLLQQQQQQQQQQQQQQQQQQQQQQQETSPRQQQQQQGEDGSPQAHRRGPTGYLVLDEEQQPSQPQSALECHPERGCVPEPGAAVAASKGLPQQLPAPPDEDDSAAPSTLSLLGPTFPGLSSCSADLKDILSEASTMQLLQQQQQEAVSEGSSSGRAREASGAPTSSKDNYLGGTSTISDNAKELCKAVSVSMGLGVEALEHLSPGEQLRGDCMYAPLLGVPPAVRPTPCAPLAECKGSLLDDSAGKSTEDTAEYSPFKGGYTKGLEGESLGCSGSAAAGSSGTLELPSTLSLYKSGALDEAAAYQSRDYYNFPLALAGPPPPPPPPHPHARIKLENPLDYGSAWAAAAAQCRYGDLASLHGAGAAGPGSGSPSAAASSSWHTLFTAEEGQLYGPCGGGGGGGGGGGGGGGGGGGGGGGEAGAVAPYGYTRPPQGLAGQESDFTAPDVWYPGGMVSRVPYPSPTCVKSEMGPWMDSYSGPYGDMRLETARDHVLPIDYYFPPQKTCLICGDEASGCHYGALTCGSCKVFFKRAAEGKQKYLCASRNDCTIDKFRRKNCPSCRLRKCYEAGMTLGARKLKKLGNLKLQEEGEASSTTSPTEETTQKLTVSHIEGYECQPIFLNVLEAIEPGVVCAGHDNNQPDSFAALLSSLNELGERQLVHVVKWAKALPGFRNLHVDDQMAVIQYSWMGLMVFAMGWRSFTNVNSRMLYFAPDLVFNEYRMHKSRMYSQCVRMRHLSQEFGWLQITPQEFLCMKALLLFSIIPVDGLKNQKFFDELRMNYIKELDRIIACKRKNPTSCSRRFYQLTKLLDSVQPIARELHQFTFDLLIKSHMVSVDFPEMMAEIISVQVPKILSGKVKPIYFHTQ
protocol description: Androgen receptor binding assay ([3H]R1881, HAP) in cytosol of HEK-293 cells transfected with hAR
reported conditions: Table 1; relative to R1881 = 100, transfected cells
The label t is reserved for Human Androgen Receptor Binding (%) RBA R1881 = 100 strictly under 6%; f covers values equal to or above it.

>  <molecule>
CC1(C)C(=O)N(c2ccc(C#N)c(C(F)(F)F)c2)C(=S)N1CCCOc1ccc(-n2ccnc2)cc1

>  <class label>
f

$$$$
>  <molecule>
CCCNCc1ccc(OCCCN2C(=S)N(c3ccc(C#N)c(C(F)(F)F)c3)C(=O)C2(C)C)cc1

>  <class label>
f

$$$$
>  <molecule>
CC1(C)C(=O)N(c2ccc(C#N)c(C(F)(F)F)c2)C(=S)N1CCCOc1ccc2oc(=O)ccc2c1

>  <class label>
f

$$$$
>  <molecule>
CC1(C)C(=O)N(c2ccc(C#N)c(C(F)(F)F)c2)C(=S)N1CCCOc1ccc(CN2CCCCC2)cc1

>  <class label>
t

$$$$
>  <molecule>
CC(C)S(=O)(=O)c1ccc(OCCCN2C(=S)N(c3ccc(C#N)c(C(F)(F)F)c3)C(=O)C2(C)C)cc1

>  <class label>
f

$$$$
>  <molecule>
CC(C)NC(C)c1ccc(OCCCN2C(=S)N(c3ccc(C#N)c(C(F)(F)F)c3)C(=O)C2(C)C)cc1 (stereo not drawn)

>  <class label>
f

$$$$
>  <molecule>
CN(C)Cc1ccc(OCCCN2C(=O)N(c3ccc(C#N)c(C(F)(F)F)c3)C(=O)C2(C)C)cc1

>  <class label>
t

$$$$
>  <molecule>
CC(=O)c1ccc(OCCCN2C(=S)N(c3ccc(C#N)c(C(F)(F)F)c3)C(=O)C2(C)C)cc1

>  <class label>
f

$$$$
>  <molecule>
CC(C)NCc1ccc(OCCCN2C(=S)N(c3ccc(C#N)c(Cl)c3)C(=O)C2(C)C)cc1

>  <class label>
t

$$$$
>  <molecule>
CC1(C)C(=O)N(c2ccc(C#N)c(C(F)(F)F)c2)C(=S)N1CCCOc1ccc2c(c1)OCC2=O

>  <class label>
f

$$$$
>  <molecule>
CC(c1ccc(OCCCN2C(=S)N(c3ccc(C#N)c(C(F)(F)F)c3)C(=O)C2(C)C)cc1)N(C)C (stereo not drawn)

>  <class label>
f

$$$$
>  <molecule>
CC(C)NCc1ccc(OCCCN2C(=S)N(c3ccc(C#N)c(C(F)(F)F)c3)C(=O)C2(C)C)cn1

>  <class label>
t

$$$$
>  <molecule>
CC(C)NCc1cccc(OCCCN2C(=S)N(c3ccc(C#N)c(C(F)(F)F)c3)C(=O)C2(C)C)c1

>  <class label>
t

$$$$

###

target entity: Human Androgen Receptor (Homo sapiens, UniProt P10275)
protocol description: Androgen receptor binding assay ([3H]R1881, HAP) in cytosol of HEK-293 cells transfected with hAR
reported conditions: Table 2; relative to R1881 = 100, transfected cells
quantity: Human Androgen Receptor Binding (%) RBA R1881 = 100

>  <compound>
N#Cc1ccc(N2CCC(O)(CCOc3ccc(CN4CCCCC4)cc3)CC2)cc1C(F)(F)F

>  <test value>
0.5%

$$$$
>  <compound>
CCC(CC)NC(CC)c1ccc(COCCN2CCN(c3ccc(C#N)c(C(F)(F)F)c3)CC2)cc1 (stereo not shown)

>  <test value>
<1.0%

$$$$
>  <compound>
CCC(CC)NC(CC)c1ccc(OCCC2(O)CCN(c3ccc(C#N)c(Cl)c3)CC2)c(C)c1 (stereo not shown)

>  <test value>
13.4%

$$$$
>  <compound>
CC(C)S(=O)(=O)c1ccc(OCCC2(O)CCN(c3ccc(C#N)c(C(F)(F)F)c3)CC2)cc1

>  <test value>
<1.0%

$$$$
